Target: native human ESRRG protein (Homo sapiens, UniProt P62508)
Sequence (P62508 1-458): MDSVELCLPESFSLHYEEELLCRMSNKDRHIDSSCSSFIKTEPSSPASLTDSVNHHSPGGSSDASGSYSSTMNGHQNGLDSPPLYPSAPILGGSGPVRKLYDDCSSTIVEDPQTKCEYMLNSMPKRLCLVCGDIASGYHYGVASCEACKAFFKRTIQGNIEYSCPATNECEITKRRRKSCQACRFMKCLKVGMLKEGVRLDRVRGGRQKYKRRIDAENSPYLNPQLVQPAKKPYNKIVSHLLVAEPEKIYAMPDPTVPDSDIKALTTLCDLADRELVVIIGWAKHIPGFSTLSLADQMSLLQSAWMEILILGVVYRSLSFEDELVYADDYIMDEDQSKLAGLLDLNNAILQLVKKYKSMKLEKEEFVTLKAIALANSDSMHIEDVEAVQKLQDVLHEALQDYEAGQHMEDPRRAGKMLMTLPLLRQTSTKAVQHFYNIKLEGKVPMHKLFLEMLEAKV
Assay: peptide microarray screening for ESRRG binding (Iteration 1 and 2)
Details: Iteration 1 primary screen; fluorescence intensity units
Outcome: TRUE for Sample A (Bkgd) Signal of at least 10; FALSE for anything lower.

>>> discrete_label("AANYVLLL")
"TRUE"
>>> discrete_label("AIRVHLMG")
"TRUE"
>>> discrete_label("ANNSKLLH")
"TRUE"
>>> discrete_label("Ac-AIRLHLMG-NH2 (C-terminus assumed)")
"TRUE"
>>> discrete_label("AIRGHLMG")
"TRUE"
>>> discrete_label("ANNSQLLH")
"FALSE"
>>> discrete_label("Ac-ANNSRLLH-NH2 (C-terminus assumed)")
"TRUE"
>>> discrete_label("AANYILLL")
"TRUE"
>>> discrete_label("RKALVGKY")
"TRUE"
>>> discrete_label("ANNLKLLH")
"TRUE"
>>> discrete_label("ANNSWLLH")
"TRUE"
>>> discrete_label("ANNIQLLH")
"FALSE"
>>> discrete_label("NIKVHANN")
"FALSE"
>>> discrete_label("LHLRYSQT")
"TRUE"
>>> discrete_label("AANMLLLL")
"TRUE"
>>> discrete_label("NSLRQHLL")
"TRUE"
>>> discrete_label("LLHLQKSQ")
"TRUE"
>>> discrete_label("ANNVSLLH")
"TRUE"
>>> discrete_label("Ac-NSLKKHLL-NH2 (C-terminus assumed)")
"FALSE"
>>> discrete_label("AANMYLLL")
"TRUE"
>>> discrete_label("Ac-LLHKSKSQ-NH2 (C-terminus assumed)")
"TRUE"
>>> discrete_label("Ac-LLHSSKSQ-NH2 (C-terminus assumed)")
"TRUE"
>>> discrete_label("AANYLLLL")
"TRUE"
>>> discrete_label("ANNSSLLH")
"FALSE"
>>> discrete_label("ANNLQLLH")
"TRUE"
